# Test system: CYP1A2
# protocol-text: CYP1A2 enzyme induction assay in cryopreserved HepaRG cells (phenacetin probe, LC/MS); also: key: 1=Positive=inducer; 0=Negative=non-inducer
# Format: in vitro ADME, human
# condition-info: HepaRG; Lab 2; batch 20
Where a name gives a salt, the structure may show the parent alone.
attribute-measured: Assigned classification CYP1A2
Answer with a number only.

Sample answers from the record:
# compound, tgt, Assigned classification CYP1A2
data = [
    ("COc1ccc2[nH]c([S+]([O-])Cc3ncc(C)c(OC)c3C)nc2c1 (stereo not shown) [Omeprazole]", "CYP1A2", 1),
    ("COc1ccccc1Oc1c(NS(=O)(=O)c2ccc(C(C)(C)C)cc2)nc(-c2ncccn2)nc1OCCO [Bosentan hydrate]", "CYP1A2", 1),
    ("NC(=O)N1c2ccccc2C=Cc2ccccc21 [Carbamazepine]", "CYP1A2", 1),
    ("CC(C)NCC(O)c1ccc(NS(C)(=O)=O)cc1 (stereo not shown) [Sotalol hydrochloride]", "CYP1A2", 0),
    ("CO[C@H]1/C=C/O[C@@]2(C)Oc3c(C)c(O)c4c(O)c(c(/C=N/N5CCN(C)CC5)c(O)c4c3C2=O)NC(=O)/C(C)=C\\C=C\\[C@H](C)[C@H](O)[C@@H](C)[C@@H](O)[C@@H](C)[C@H](OC(C)=O)[C@@H]1C [Rifampicin]", "CYP1A2", 1),
]

Which Assigned classification CYP1A2 value is on record for O=C1NC(=O)C(c2ccccc2)(c2ccccc2)N1 [Phenytoin sodium] ?
1

# repeat for COCCc1ccc(OCC(O)CNC(C)C)cc1 (stereo not shown) [Metoprolol]
0
